PROTOCOL_SUMMARY: Metabolic stability in mouse liver microsomes assessed as compound metabolized at 10 uM after 30 mins by LC-MS analysis
Assay type: ADME, Microsome
DETAILS: read-out: Activity
Form field: metabolised at 0.5 h, 10 µM (one value per entry).
Reply with the number, then its unit.

Lookup: Give the value of metabolised at 0.5 h, 10 µM reported for the following: "CC[C@H](Nc1nc(NCc2cccnc2)c2ncn(C(C)C)c2n1)C(C)(C)O"
Found: 22%

Continuing:
Lookup: Dear colleague, please send me the reported metabolised at 0.5 h, 10 µM for CC[C@H](CO)Nc1nc(NCc2ccccc2)c2ncn(C(C)C)c2n1 [SELICICLIB] when you can.
Found: 67%

Lookup: Provide metabolised at 0.5 h, 10 µM value for the following molecule: "CC[C@H](Nc1nc(NCc2ccccn2)c2ncn(C(C)C)c2n1)C(C)(C)O"
Found: 53%

Lookup: Name the recorded metabolised at 0.5 h, 10 µM of the item CC[C@@H](Nc1nc(NCc2ccccc2)c2ncn(C(C)C)c2n1)C(C)O (mixture of isomers) in your answer.
Found: 91%
